B1: HDV Ribozyme (parent)
chain: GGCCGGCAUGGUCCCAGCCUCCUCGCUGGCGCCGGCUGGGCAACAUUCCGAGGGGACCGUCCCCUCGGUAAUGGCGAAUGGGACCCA

Variants of: B1
method_notes: self-cleavage, relative activity (ratio to wild type); higher = more cleavage; co-transcriptional
I would appreciate it if you labelled entries TRUE when self-cleavage is 0.3 or higher, otherwise FALSE.

>>> assigned_category("U20G G54U")
"FALSE"
>>> assigned_category("C32G U47G")
"FALSE"
>>> assigned_category("C48G A78U")
"FALSE"
>>> assigned_category("C30G G73C")
"FALSE"
>>> assigned_category("A43U G59U")
"TRUE"
>>> assigned_category("C4A C21G")
"FALSE"
>>> assigned_category("C21A U46G")
"FALSE"
>>> assigned_category("U47A C75A")
"FALSE"
>>> assigned_category("C22G C75G")
"FALSE"
>>> assigned_category("G11A U37A")
"FALSE"
>>> assigned_category("G52A C57G")
"TRUE"
>>> assigned_category("G40C C63U")
"TRUE"
>>> assigned_category("G67U G82A")
"FALSE"
>>> assigned_category("G34A A71G")
"FALSE"
>>> assigned_category("C14U G55A")
"TRUE"
>>> assigned_category("A45G A71G")
"TRUE"
>>> assigned_category("U12C G17A")
"TRUE"
>>> assigned_category("G10A G50C")
"TRUE"
>>> assigned_category("C19G G55A")
"FALSE"
>>> assigned_category("C22A C36G")
"FALSE"
>>> assigned_category("U27G A51G")
"TRUE"
>>> assigned_category("A8U A83G")
"TRUE"
>>> assigned_category("C22G C86A")
"FALSE"
>>> assigned_category("G50A C62G")
"FALSE"
>>> assigned_category("A71C C85A")
"TRUE"
>>> assigned_category("G28C")
"FALSE"
>>> assigned_category("C15U G73C")
"TRUE"
>>> assigned_category("C33A C62U")
"FALSE"
>>> assigned_category("G17A C49A")
"TRUE"
>>> assigned_category("C22G G68C")
"FALSE"
>>> assigned_category("C32G A42U")
"FALSE"
>>> assigned_category("C15U C30G")
"FALSE"
>>> assigned_category("G10A A77U")
"FALSE"
>>> assigned_category("U37A A43G")
"FALSE"
>>> assigned_category("C7A C62U")
"TRUE"
>>> assigned_category("C7A C63U")
"TRUE"
>>> assigned_category("G2C U65G")
"FALSE"
>>> assigned_category("C63G C64A")
"TRUE"
>>> assigned_category("C75A C84U")
"FALSE"
>>> assigned_category("G1C C32A")
"FALSE"
>>> assigned_category("C26A G54U")
"TRUE"
>>> assigned_category("U23A C75U")
"TRUE"
>>> assigned_category("C36U U37G")
"FALSE"
>>> assigned_category("A16G A71U")
"TRUE"
>>> assigned_category("C44U A70U")
"TRUE"
>>> assigned_category("G38A A43U")
"FALSE"
